# measurement.protocol: Pharmacokinetics in plasma and blood brain barrier penetration after i.v. administration
# Assay type: in vivo
# details: RjOrl:Swiss CD-1, mouse, iv; male CD-1 mice, 0.5 mg·kg^−1 i.v., K-EDTA plasma, LC–MS, n=3 mice per time point
Bridge positions count the residues as written; N and C are the ends. Square brackets hold non-standard residues; d marks the D form. Peptide text beside a SMILES is read from it.
measured.attribute: half-life (h)
Answers are plain numbers, in h.

**Q:** Output measured half-life for this item: CC(C)C[C@@H]1NC(=O)[C@@H](CC(C)C)NC(=O)[C@H](C(C)C)NC(=O)[C@H]2CSSC[C@@H](NC1=O)C(=O)N2 [malformin C] (cyclo(L[dC][dC]V[dL]); disulfide 2-3)
**A:** 5.8

----------
# measurement.protocol: Pharmacokinetics in plasma and blood brain barrier penetration after i.v. administration
# Assay type: in vivo
# details: RjOrl:Swiss CD-1, mouse, brain, iv; by 1 h, male CD-1 mice, 0.5 mg·kg^−1 i.v., LC–MS; read-out: equivalent molar concentration in the brain
Bridge positions count the residues as written; N and C are the ends. Square brackets hold non-standard residues; d marks the D form. Peptide text beside a SMILES is read from it.
measured.attribute: level at time molar at 1 h

**Q:** Output measured level at time molar at 1 h for this item: CC(C)C[C@@H]1NC(=O)[C@@H](CC(C)C)NC(=O)[C@H](C(C)C)NC(=O)[C@H]2CSSC[C@@H](NC1=O)C(=O)N2 [malformin C] (cyclo(L[dC][dC]V[dL]); disulfide 2-3)
**A:** ~1.9 nM

Just for reference, paper PMC11887673 is where these values come from.
